- System: DU-145
- MEASUREMENT DESCRIPTION: SRB colorimetric assay of cell growth and viability, DU-145
- Format: cell-based, human
- PARTICULARS: 48 hours exposure, SRB

| MOLECULE | GI50 / nM |
| --- | --- |
| C/C=C1\NC(=O)[C@H](Cc2ccccc2)NC(=O)[C@@H](C(C)C)NC(=O)[C@@H]([C@@H](C)CC)NC(=O)[C@H](NC(=O)[C@H](NC(=O)[C@H](CCCN)NC(=O)[C@H]2CCCN2C(=O)[C@H](NC(=O)[C@@H](NC(=O)[C@@H](NC(=O)[C@H](NC(=O)CC[C@@H](C)CC)C(C)C)[C@@H](C)OC(=O)C(F)(F)F)C(C)C)C(C)C)[C@@H](C)CC)[C@@H](C)OC(=O)[C@H](C(C)C)NC1=O [Compound 94] | 718 |
| C/C=C1\NC(=O)[C@H](Cc2ccccc2)NC(=O)[C@@H](C(C)C)NC(=O)[C@@H]([C@@H](C)CC)NC(=O)[C@H](NC(=O)[C@H](NC(=O)[C@H](CCCN)NC(=O)[C@H]2CCCN2C(=O)[C@H](NC(=O)[C@@H](NC(=O)[C@@H](NC(=O)[C@H](NC(=O)CC[C@@H](C)[C@H]2CC[C@H]3[C@@H]4CC[C@@H]5C[C@H](OC(=O)C(F)(F)F)CC[C@]5(C)[C@H]4CC[C@]23C)C(C)C)[C@@H](C)OC(=O)C(F)(F)F)C(C)C)C(C)C)[C@@H](C)CC)[C@@H](C)OC(=O)[C@H](C(C)C)NC1=O [Compound 97] | 517 |
| C/C=C1\NC(=O)[C@H](Cc2ccccc2)NC(=O)[C@@H](C(C)C)NC(=O)[C@@H]([C@@H](C)CC)NC(=O)[C@H](NC(=O)[C@H](NC(=O)[C@H](CCCNC(=O)C(F)(F)F)NC(=O)[C@H]2CCCN2C(=O)[C@H](NC(=O)[C@@H](NC(=O)[C@@H](NC(=O)[C@H](NC(=O)CC[C@@H](C)CC)C(C)C)[C@@H](C)O)C(C)C)C(C)C)[C@@H](C)CC)[C@@H](C)OC(=O)[C@H](C(C)C)NC1=O [Compound 96] | 985 |

* * *

- System: LoVo
- MEASUREMENT DESCRIPTION: SRB colorimetric assay of cell growth and viability, LoVo
- Format: cell-based, human
- PARTICULARS: LOVO; 48 hours exposure
Where a SMILES comes first, the peptide text is derived from it. Bridges are numbered along the chain shown (N, C = ends). [ ]: non-standard residue; d: D form. The star is where a group is joined. 2Nal = N[C@@H](Cc1ccc2ccccc2c1)C(=O)O; d(aIle) = CC[C@H](C)[C@@H](N)C(=O)O; d(aThr) = C[C@@H](O)[C@@H](N)C(=O)O; hCha = N[C@@H](CCC1CCCCC1)C(=O)O; Hexanoyl(5-Me) = CC(C)CCCC(=O)*; Orn = NCCC[C@H](N)C(=O)O; Dhb = C/C=C(\N)C(=O)O

| COMPOUND | GI50 |
| --- | --- |
| C/C=C1\NC(=O)[C@H](CCC2CCCCC2)NC(=O)[C@@H](C(C)C)NC(=O)[C@@H]([C@@H](C)CC)NC(=O)[C@H](NC(=O)[C@H](NC(=O)[C@H](CCCN)NC(=O)[C@H]2CCCN2C(=O)[C@H](NC(=O)[C@@H](NC(=O)[C@@H](NC(=O)[C@H](NC(=O)CCCC(C)C)C(C)C)[C@@H](C)O)C(C)C)C(C)C)[C@@H](C)CC)[C@@H](C)OC(=O)[C@H](C(C)C)NC1=O [Compound 63] ({Hexanoyl(5-Me)}-[dV]TV[dV][dP][Orn][d(aIle)][d(aThr)][d(aIle)][dV][hCha][Dhb]V; ester 8-C) | 122 nM |
| C/C=C1\NC(=O)[C@H](Cc2ccc3ccccc3c2)NC(=O)[C@@H](C(C)C)NC(=O)[C@@H]([C@@H](C)CC)NC(=O)[C@H](NC(=O)[C@H](NC(=O)[C@H](CCCN)NC(=O)[C@H]2CCCN2C(=O)[C@H](NC(=O)[C@@H](NC(=O)[C@@H](NC(=O)[C@H](NC(=O)CCCC(C)C)C(C)C)[C@@H](C)O)C(C)C)C(C)C)[C@@H](C)CC)[C@@H](C)OC(=O)[C@H](C(C)C)NC1=O [Compound 85, [Nal^3]-KF] ({Hexanoyl(5-Me)}-[dV]TV[dV][dP][Orn][d(aIle)][d(aThr)][d(aIle)][dV][2Nal][Dhb]V; ester 8-C) | 32.8 nM |
| C/C=C1\NC(=O)[C@H](Cc2ccccc2)NC(=O)[C@@H](C(C)C)NC(=O)[C@@H]([C@@H](C)CC)NC(=O)[C@H](NC(=O)[C@H](NC(=O)[C@H](CCCN)NC(=O)[C@@H]2CCCN2C(=O)[C@H](NC(=O)[C@@H](NC(=O)[C@@H](NC(=O)[C@H](NC(=O)CC[C@@H](C)CC)C(C)C)[C@@H](C)O)C(C)C)C(C)C)[C@@H](C)CC)[C@@H](C)OC(=O)[C@H](C(C)C)NC1=O [Compound 59, [Pro^9, (4S)-MeHex^14]-KF] | 5280 nM |
